Sourced from ChEMBL document CHEMBL1201862

Tested on: UACC-257
measurementNotes: NCI tumour cell line growth inhibition, 48 h
Calls of active or inactive are those of the source. Rule as the data show it: active = GI50 up to about 1.1 µM and inactive = higher.
quantityKind: GI50

Give the observed GI50 of `CCOC(=O)C(=O)N1C(C)=C(C(=O)OCC)CC(C(=O)OCC)=C1C` for UACC-257.
> 100 µM (inactive)

Give GI50 only, for `CC1=C(C(=O)Nc2cc(F)c(F)cc2F)C(c2ccc(N(C)C)cc2)C(C(=O)Nc2cc(F)c(F)cc2F)=C(C)N1` , using UACC-257 data.
25.5 µM (inactive)

Name the recorded GI50 of N#CC(N)(C(=O)C(=O)NCCCNC(=O)C(=O)C(N)(C#N)c1ccc(Cl)cc1)c1ccc(Cl)cc1 (centres undefined) , assay system UACC-257.
> 100 µM (inactive)

Provide measured GI50 on UACC-257 for CCOC(=O)c1c(-c2ccc(Cl)cc2)c(C#N)c(=S)n(C2OC(COC(C)=O)C(OC(C)=O)C(OC(C)=O)C2OC(C)=O)c1-c1ccccc1 (centres undefined) please.
> 100 µM (inactive)

Give the observed GI50 of `CC(C)n1c2c(c3ccccc3c1=O)C(=O)c1ccccc1-2` for UACC-257.
> 100 µM (inactive)

Hey, quick one: what's GI50 for each of these?
1. CC1CCc2c(sc3ncnc(N/N=C/c4ccc(Cl)cc4)c23)C1 (centres undefined)
2. CO[C@@H]1C[C@H]2[C@@H]3CC[C@H]([C@@H](C)COC(C)=O)[C@@]3(C)CC[C@@H]2[C@@]2(C)CC[C@H]3C[C@]312

1. 29.8 µM (inactive)
2. 11.6 µM (inactive)

Provide GI50 for all items below, preserving their order.
1. [O-][S+](Cc1ccccn1)c1nc2ccccc2nc1-c1ccccc1 (centres undefined)
2. O=c1[nH]nc(-c2ccccc2)n1/N=C/c1cccc([N+](=O)[O-])c1

33.1 µM (inactive)
> 100 µM (inactive)

###

Test system: K562
measurementNotes: NCI tumour cell line growth inhibition, 48 h
Activity calls are given as the source filed them. Rule as the data show it: active = GI50 up to about 1.1 µM and inactive = higher.
Choose one outcome from this list and give only that: true = active, false = inactive

Example entries and their recorded answers appear below.
GET /call?item= `COc1cc([C@@H]2c3cc4c(c(O[C@@H]5O[C@H]6CO[C@@H](C)O[C@H]6[C@H](O)[C@@H]5O)c3C[C@H]3COC(=O)[C@@H]32)OCO4)cc(OC)c1O` returns the recorded outcome of this test.
false

Field: outcome | Entry: CC(C)C1CC[C@H](C)C[C@@H]1OC(=O)C(C(=O)O[C@H]1C[C@@H](C)CCC1C(C)C)C(O)[C@@H]1OC(C)(C)O[C@H]1C1COC(C)(C)O1 (some centres undefined)
false

Assay outcome for CC1CC2CCCC(=O)C2=C(O)O1 (centres undefined) : what was it?
false

***
Hi team, can someone confirm the assay call for `O=C(O)CCSC(=S)Nc1cccc(F)c1` ?
false

What classification did `CCN(CC)CCOc1ccc(N2C(=O)c3cc(OC)c(OC)cc3C2=O)cc1` end up with in this test?
false

What is the recorded call for this compound in the test? `CCCC[C@H]1[C@@H](OCOc2ccccc2)COC(=O)N1[C@H](C)c1ccccc1`
false

Entry COC1C(O)CC(OC2CC(Oc3cc4cc5c(c(O)c4c(O)c3C)C(=O)[C@@H](OC3CC(OC4CC(OC6CC(C)(O)C(OC(C)=O)C(C)O6)C(O)C(C)O4)C(O)C(C)O3)[C@H]([C@H](OC)C(=O)[C@@H](O)[C@@H](C)O)C5)OC(C)C2OC(C)=O)OC1C (some centres undefined) [CHROMOMYCIN] : call = ?
true

###

System: M14
measurementNotes: NCI tumour cell line growth inhibition, 48 h
Calls of active or inactive are those of the source. Cut-off read from the data, not from the text of the source: active = GI50 up to about 1.1 µM and inactive = higher.
quantityKind: GI50

// known answers, use as guide
Return GI50 (reported value) for this compound: `O=C(Cn1c2ccc(Br)cc2c2nc3ccccc3nc21)N/N=C/c1ccccc1`
> 100 µM (inactive)

Return the recorded GI50 value; entry: `Cc1[nH]c(-c2ccccc2)c(O)c1C(=O)OC12CC3CC(CC(C3)C1)C2`
12.4 µM (inactive)

Let me know recorded GI50 for `CCC(=O)N1NC(=O)C(CC)(CC)C1=O` , thanks.
> 100 µM (inactive)

Next compound, please.
Given the compound `COCN1C(=O)[C@@H]2C[C@@H](O)CN2C(=O)c2ccccc21` , write its reported GI50.
> 100 µM (inactive)

###

Test system: LOX IMVI
measurementNotes: NCI tumour cell line growth inhibition, 48 h
Active and inactive are the calls of the source. No stated cut-off is given here; in the data, active = GI50 up to about 1.1 µM and inactive = higher.
I'd be grateful if you could share measured GI50 for these entries.

Supply recorded GI50 for N#CCCC1(CCC#N)CCCCCCC(CCC#N)(CCC#N)C(O)C1O (centres undefined) here.
> 100 µM (inactive)

Give GI50 for all compounds that follow.
1. C[C@@]1(Br)C[C@@](C)(Cl)[C@@H](Br)CC1/C=C/Cl (some centres undefined)
2. COc1ccc(C2C3COc4ccccc4C3=NN2c2ccccc2)cc1 (centres undefined)
3. CCOC(=O)CCc1c(C)c2c(OC(C)=O)cc(OC(C)=O)cc2oc1=O
4. O=C(COc1ccc(Cl)cc1)N1N=C(c2ccc(Cl)cc2)CC1(O)c1ccccc1 (centres undefined)

17.6 µM (inactive)
> 100 µM (inactive)
> 10 µM (inactive)
12.6 µM (inactive)

###

Tested on: KM12
measurementNotes: NCI tumour cell line growth inhibition, 48 h
Calls of active or inactive are those of the source. Cut-off read from the data, not from the text of the source: active = GI50 up to about 1.1 µM and inactive = higher.
Would you kindly list GI50 for each of these compounds?

Would you mind listing GI50 for each of the following compounds?
1. OCCN(C1=NCCN1)/[N+](=C\c1ccccn1)[CH-]c1ccccn1
2. Clc1ccc(OCc2nnc3sc(-c4ccc(-c5ccc(Cl)cc5Cl)o4)nn23)cc1
3. Cc1cc(N(CCOS(C)(=O)=O)CCOS(C)(=O)=O)ccc1/C=N/c1ccc(-c2nc(Cc3ccccc3)sc2C)cc1
4. CCSCCCN(CCCSCC)CCCSCC

1: > 100 µM (inactive); 2: > 100 µM (inactive); 3: 14.2 µM (inactive); 4: > 100 µM (inactive)

Provide the reported GI50 of each entry below, same order.
1. CC12CCC(C(Br)(Br)C1=O)C2(C)C (stereo not given)
2. O=S(=O)(O)c1cc2ccc1/C=C\c1ccc(cc1S(=O)(=O)O)/N=N\c1ccc(c(S(=O)(=O)O)c1)/C=C\c1ccc(cc1S(=O)(=O)O)/N=N\2

1: 2.77 µM (inactive); 2: > 100 µM (inactive)

Parameters: items (list). Returns: GI50 for each item.
1. CNC(=O)OC1/C(C)=C\C(C)C(O)C(OC)CC(C)CC2=C(OC)C(=O)C=C(C2=O)N(C)C(=O)/C(C)=C/C=C\C1OC (stereo not given)
2. CSC1=N/C(=C\c2cccs2)C(=O)N1CN1CCCCC1
3. Nc1nc(-c2ccccc2)cc(-c2cc(Cl)ccc2O)n1
4. CCC(=O)N1NC(=O)C(CC)(CC)C1=O

["10.4 µM (inactive)", "50.2 µM (inactive)", "50.9 µM (inactive)", "> 100 µM (inactive)"]

###

Tested on: HCT-15
Can you tell me GI50 for the items I'm about to list?

Sample records with GI50:
Provide GI50, system HCT-15, entry `CCNC(=O)/C=C/CCC#Cc1ccc(-c2ccc(-c3cccs3)s2)s1`
> 100 µM

Look up and report GI50, with HCT-15 as system, for [N-]=[N+]=CC(=O)OCC1NC(=O)C(COC(=O)C=[N+]=[N-])NC1=O (stereo unspecified)
> 100 µM

Supply GI50 measured with HCT-15 for `NC1=NC(=O)C2(NN1)c1ccccc1-c1ccccc12` .
> 10 µM

For HCT-15, give the measured GI50 of the entry `Cc1ccc(Cc2cc(N3CCN(c4cccc(Cl)c4)CC3)nnc2C)cc1`
63.8 µM

Provide GI50, recorded with HCT-15, of `O=S(=O)(SC1=NCCN1)c1ccc2ccccc2c1`
25.1 µM

Now consider the entry below.
Answer briefly: GI50 recorded on HCT-15 for CC(C)C(NCc1c2ccccc2[n+](C)c2ccccc12)C(=O)O (stereo unspecified)
3.68 µM

###

Test system: SK-MEL-5
measurementNotes: NCI tumour cell line growth inhibition, 48 h
Calls of active or inactive are those of the source. No stated cut-off is given here; in the data, active = GI50 up to about 1.1 µM and inactive = higher.
Assign GI50 to each entry below.

Examples with their reported GI50 follow.
Let me know recorded GI50 for Cc1cn(C2CC3C(COCN3O)O2)c(=O)[nH]c1=O (stereo unspecified) , thanks.
> 100 µM (inactive)

Note GI50 for the compound shown: `CCOc1ccc(/N=N/c2c(-c3ccccc3)nn(C(=O)CC(=O)Nc3cccc(C)c3)c2-c2ccccc2)cc1`
90.2 µM (inactive)

Supply reported GI50 belonging to this compound: `O/N=C\c1c(O)ccc2ccccc12`
46.7 µM (inactive)

Output GI50 of `CO/C(N)=C(C#N)/N=C/c1ccco1`
> 100 µM (inactive)

Provide GI50 value for the following compound: `O=S(=O)(SC1=NCCN1)c1ccc2ccccc2c1`
26.5 µM (inactive)

More entries:
Check the records and state GI50 for `Nc1ncnc2c1ccn2C/C=C\CO`
> 100 µM (inactive)
